biological target: Insulin-like growth factor 1 receptor (Homo sapiens, UniProt P08069); assay: Inhibition of phospho IGFR1 by cellular assay
Sequence (P08069 31-736 limits assumed): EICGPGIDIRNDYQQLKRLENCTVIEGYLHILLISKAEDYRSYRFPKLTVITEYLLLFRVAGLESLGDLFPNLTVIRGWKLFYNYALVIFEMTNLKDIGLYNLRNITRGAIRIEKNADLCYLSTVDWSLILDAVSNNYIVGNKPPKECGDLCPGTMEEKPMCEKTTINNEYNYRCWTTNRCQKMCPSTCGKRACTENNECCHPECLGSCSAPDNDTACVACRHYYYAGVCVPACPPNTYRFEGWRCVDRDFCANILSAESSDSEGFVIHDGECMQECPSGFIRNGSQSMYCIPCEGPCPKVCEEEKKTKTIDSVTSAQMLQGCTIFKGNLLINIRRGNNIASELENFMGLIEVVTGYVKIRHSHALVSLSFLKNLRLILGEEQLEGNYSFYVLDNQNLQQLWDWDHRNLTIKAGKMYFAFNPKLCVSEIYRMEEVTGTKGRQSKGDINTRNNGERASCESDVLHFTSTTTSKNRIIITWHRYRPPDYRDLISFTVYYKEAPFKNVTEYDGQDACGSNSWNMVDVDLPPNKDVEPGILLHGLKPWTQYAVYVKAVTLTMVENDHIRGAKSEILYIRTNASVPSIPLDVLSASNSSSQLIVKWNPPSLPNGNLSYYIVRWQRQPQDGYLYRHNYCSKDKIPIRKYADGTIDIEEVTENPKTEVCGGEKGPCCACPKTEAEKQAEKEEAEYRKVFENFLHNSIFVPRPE
Sequence (P08069 741-1367 limits assumed): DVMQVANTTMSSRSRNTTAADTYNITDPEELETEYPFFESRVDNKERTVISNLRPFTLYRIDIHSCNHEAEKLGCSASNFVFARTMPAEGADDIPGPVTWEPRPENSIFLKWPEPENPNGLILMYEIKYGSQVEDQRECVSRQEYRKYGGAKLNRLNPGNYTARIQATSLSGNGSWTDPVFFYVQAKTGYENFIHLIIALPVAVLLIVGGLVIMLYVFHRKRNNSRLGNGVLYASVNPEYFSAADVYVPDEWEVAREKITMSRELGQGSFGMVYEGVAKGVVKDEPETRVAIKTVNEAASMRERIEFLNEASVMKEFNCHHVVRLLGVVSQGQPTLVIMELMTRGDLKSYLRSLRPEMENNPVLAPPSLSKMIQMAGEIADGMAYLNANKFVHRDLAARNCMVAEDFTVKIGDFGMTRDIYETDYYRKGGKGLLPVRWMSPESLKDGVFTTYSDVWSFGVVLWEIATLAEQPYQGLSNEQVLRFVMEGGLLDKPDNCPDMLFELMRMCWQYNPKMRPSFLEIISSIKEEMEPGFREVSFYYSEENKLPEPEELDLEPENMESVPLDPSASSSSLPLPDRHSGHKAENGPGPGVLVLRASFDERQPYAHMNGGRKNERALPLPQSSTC
Flag rule - IC50 less than 0.7 µM flags True; the remaining entries get False.

INSERT INTO assay_data (smiles, group) VALUES
  ('COc1cc2c(cc1Nc1nc(Nc3cccc(F)c3C(N)=O)c3cc[nH]c3n1)N(C(=O)CCN1CCN(C(C)C)CC1)CC2', 'True'),
  ('COc1ccc(OCCCN(C)C)cc1Nc1nc(Nc2cccc(F)c2C(N)=O)c2cc[nH]c2n1', 'True');

q: Please indicate whether the reported IC50 of `CNCC(=O)N1CCc2cc(OC)c(Nc3nc(Nc4cccc(F)c4C(N)=O)c4cc[nH]c4n3)cc21` is strictly below 0.7 µM.
a: True

q: Please indicate whether the reported IC50 of `COc1cc2c(cc1Nc1nc(Nc3cccc(F)c3C(N)=O)c3cc[nH]c3n1)N(C(C)=O)CCC2` is strictly below 0.7 µM.
a: False

q: Please indicate whether the reported IC50 of `COc1ccc(N2CCN(C(C)C)CC2)cc1Nc1nc(Nc2cccc(F)c2C(N)=O)c2cc[nH]c2n1` is strictly below 0.7 µM.
a: True

q: Please indicate whether the reported IC50 of `COc1cc(Cl)c(OCCCN(C)C)cc1Nc1nc(Nc2cccc(F)c2C(N)=O)c2cc[nH]c2n1` is strictly below 0.7 µM.
a: False

q: Please indicate whether the reported IC50 of `COc1cc2c(cc1Nc1nc(Nc3cccc(F)c3C(N)=O)c3cc[nH]c3n1)N(CCN(C)C)CC2` is strictly below 0.7 µM.
a: False

q: Please indicate whether the reported IC50 of `COc1cc2c(cc1Nc1nc(Nc3cccc(F)c3C(N)=O)c3cc[nH]c3n1)N(C(=O)CN(C)C)CC2` is strictly below 0.7 µM.
a: True

q: Please indicate whether the reported IC50 of `COc1cc(C)c(CCCN(C)C)cc1Nc1nc(Nc2cccc(F)c2C(N)=O)c2cc[nH]c2n1` is strictly below 0.7 µM.
a: False

q: Please indicate whether the reported IC50 of `COc1cc2c(cc1Nc1nc(Nc3cccc(F)c3C(N)=O)c3cc[nH]c3n1)N(C(=O)CN1CCCC1)CC2` is strictly below 0.7 µM.
a: True

q: Please indicate whether the reported IC50 of `CCN(C)CC(=O)N1CCc2cc(OC)c(Nc3nc(Nc4cccc(F)c4C(N)=O)c4cc[nH]c4n3)cc21` is strictly below 0.7 µM.
a: True
